# assay_target: α-glucosidase
# test_details: Inhibition of α-glucosidase
# test_context: N-alkyl DNJ derivatives
For each record, write down the corresponding IC50.
Express the result in nM but write the number alone.

I would be grateful if you could share the reported IC50 for `CCCCCCCCCCN1C[C@H](O)[C@@H](O)[C@H](O)[C@H]1CO` .
480

Item under review: CCCCN1C[C@H](O)[C@@H](O)[C@H](O)[C@H]1CO [N-butyl DNJ, N-butyl deoxynojiricmycin, reference compound] . Reported IC50?
570

---

# Test system: MDBK cells
# test_details: Toxicity / cell cytotoxicity in MDBK cells
# Format: cell-based
assay_metric: CC50 (µM)
Give the quantity in µM, number only.

Param readout = CC50; param system = MDBK cells; param query = `CCCCCCCCCN1C[C@H](O)[C@@H](O)[C@H](O)[C@H]1CO` ; response: value
250
